Entries and their Neutralization IC50, H9-HK97 values follow.
# assayedSystem: HA of ca A/chicken/Hong Kong/G9/97 (H9N2) virus (influenza A virus)
# method: cell-based or functional assay
Report the figure in µg/mL without appending any unit label.

Lab note: measured Neutralization IC50, H9-HK97 of Antibody 6 (antibody, V domains shown) VH: QVQLQQSGPGLVKPSQTLSLTCAISGDRVSSNSAVWNWIRQSPSRGLEWLGRTYYRSKWYYDYAESVKSRIVIDPDTSKNQVSLQLNSVTPEDSAIYYCARGGHITEFGLNIDAYDIWGQGAMVTVSS VL: DIQMTQSPSSLSASVGDRVTISCRAQSLSSYLHWYQQKPGQPPKLLIYAATTLQSGVPSRFSGSGSGTDFTLTISTFQAEDVATYYCQQSRTFGQGTKVEIK was 16.5

Lab note: measured Neutralization IC50, H9-HK97 of Antibody 5 (antibody, V domains shown) VH: QVQLQQSGPGLVKPSQTLSLTCAISGDRVSSNSAVWNWIRQSPSRGLEWLGRTYYRSKWYYDYAESVKSRIVIDPDTSKNQVSLQLNSVTPEDSAIYYCARGGHITVFGLNIDAYDIWGQGAMVTVSS VL: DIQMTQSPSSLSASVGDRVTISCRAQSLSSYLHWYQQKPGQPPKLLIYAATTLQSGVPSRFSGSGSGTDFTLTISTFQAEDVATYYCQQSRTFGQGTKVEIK was 2.43

Lab note: measured Neutralization IC50, H9-HK97 of Antibody 10 (antibody, V domains shown) VH: QVQLQQSGPGLVKPSQTLSLTCAISGDSVSSNSATWNWIRQSPSRGLEWLGRTYYRSKWYNDYADFLKRRITINPDTSNNEVSLRLTSVTPDDTALYYCARGGHITVFGVNIDAFDVWGQGTMVTVSS VL: DIQMTQSPSSLSASVGDRITISCRTSQSLRSYLHWYQQKPGKAPKLLIYASSTLQSGVPSRFSGSGSGTDFTLTISNLQPEDFATYYCQLSRTFGQGTKVEIK was 1.76

Lab note: measured Neutralization IC50, H9-HK97 of Antibody 8 (antibody, V domains shown) VH: QVQLQQSGPGLVKPSQTLSLTCVISGDTVSSNRATWNWMRQSPLRGLEWLGRTYYRSKWYNDYAVSVKSRVVINPDTSKNQVSLQLNTVTPDDSGVYFCARGGHITVFGVNIDAFDIWGLGTKVTVSS VL: DIQMTQSPSSLSASVGDRVTISCRASQRLNSYLHWYQQTPGQAPKLLIYATSTLQSGVSPRFSGSGSGTDFTLTISSLQPEDVATYYCQLSRTFGHGTKVEIK was 26.4
